The measurements presented in this section are drawn from PubChem BioAssay AID2060512.

Test system: 186277-243-T-J2-PDC complex spheroid viability;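 note: spheroids exposed to drugs for 7 days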
Assay: Anticancer human tumor 186277-243-T-J2-PDC patient-derived colon adenocarcinoma cell line growth inhibition [GQUAD]
Details: second compound 0.1 µM; first compound 0.0316 µM; stronger effect = lower value
Binary label based on viability, T/C with cut-off 80%: below gives satisfied, not below gives not satisfied.

IN: Consider Cn1ncnc1[C@H]1c2n[nH]c(=O)c3cc(F)cc(c23)N[C@@H]1c1ccc(F)cc1 + CN(C)c1ccc(Nc2c3ccc(NC(=O)CCN4CCCC4)cc3nc3cc(NC(=O)CCN4CCCC4)ccc23)cc1 . Does its viability, T/C lie strictly below 80%?
OUT: not satisfied

IN: What about CC1COCCN1c1cc(-c2ccnn2C)c2ccnc(-c3ccn[nH]3)c2n1 (stereo unspecified) + Cc1[nH]c2ccc(F)cc2c1-c1nc2c3cccnc3c3ncccc3c2[nH]1 ?
OUT: satisfied

IN: What about COc1ncnc(C2CC2)c1-c1ncc2cnn(Cc3ccc(-c4nc(C(F)(F)F)cn4C(C)C)cc3)c2n1 + Cc1[nH]c2ccc(F)cc2c1-c1nc2c3cccnc3c3ncccc3c2[nH]1 ?
OUT: not satisfied

IN: What about CC1COCCN1c1cc(-c2ccnn2C)c2ccnc(-c3ccn[nH]3)c2n1 (stereo unspecified) + Cc1cnc(CNC(=O)c2c(=O)c3ccc(N4CCCN(C)CC4)nc3n3c2sc2ccccc23)cn1 ?
OUT: satisfied

IN: What about O=C(NO)c1cnc(N2CCN(S(=O)(=O)c3ccc4ccccc4c3)CC2)nc1 + Cc1cnc(CNC(=O)c2c(=O)c3ccc(N4CCCN(C)CC4)nc3n3c2sc2ccccc23)cn1 ?
OUT: satisfied

IN: What about CC(C)(O)C1CCC(Nc2ccc3ncc(-c4cccc(C(F)(F)F)c4)n3n2)CC1 (stereo unspecified) + CN(C)c1ccc(Nc2c3ccc(NC(=O)CCN4CCCC4)cc3nc3cc(NC(=O)CCN4CCCC4)ccc23)cc1 ?
OUT: not satisfied

IN: What about COc1ccc([C@@H](O)c2cc(-c3ncnc4cc(N5CCOCC5)ccc34)c(F)cc2Cl)nn1 + CN(C)c1ccc(Nc2c3ccc(NC(=O)CCN4CCCC4)cc3nc3cc(NC(=O)CCN4CCCC4)ccc23)cc1 ?
OUT: not satisfied

IN: What about CC1COCCN1c1cc(C2(O)CC3CCC(C2)O3)c2cnn(-c3ccn[nH]3)c2n1 (stereo unspecified) + Cc1[nH]c2ccc(F)cc2c1-c1nc2c3cccnc3c3ncccc3c2[nH]1 ?
OUT: satisfied

IN: What about O=c1[nH]cc(F)c(=O)[nH]1 + Cc1[nH]c2ccc(F)cc2c1-c1nc2c3cccnc3c3ncccc3c2[nH]1 ?
OUT: not satisfied
